- assay_target: WT Spike (SARS-CoV-2, UniProt P0DTC2 16-1213)
observation_type: Kd (pM)

[[record]]
binder = "Ab 20 (scFv, V domains shown) VH: QVQLVQSGGGSVKPGGSLRLSCAASGYRLSDYYMHWVRQAPGKGLEWVANIKQDGSEKYYVDSVKGRFTISRDNAKNSLYLQMNSLRAEDTAVYYCARVRGWSRGYFDYWGQGTLVTVSS VL: NFMLTQPHSVSESPGKTVTISCTGSSGSIASNYVQWYQQRPGSAPTTVIYEDNQRPSGVPDRFSGSIDSSSNSASLLISGLKTEDEADYYCQSYDSSNHWVFGGGTKLTVL"
reading_unit = "pM"
observed_measurement = 9.01

[[record]]
binder = "Ab 28 (scFv, V domains shown) VH: QVTLKESGPGLVNPSETLSLTCTVSGASISNSFWSWIRQSPGKGLEWIGYTSYSGNSIYNPSLKSRLTMSIDTSKNQLSLNLRSLTAADTAVYYCARREWIKGHFDYWGQGTLVTVSS VL: NFMLTQPHSVSESPGKTVTISCTGSGGSIASNYVQWYQQRPGSAPTTVIYEDNQRPSGVPDRFSGSIDSSSNSASLTISGLKTEDEADYYCQSYDSSNPVVFGGGTKLTVL"
reading_unit = "pM"
observed_measurement = 8.9

[[record]]
binder = "Ab_19 (scFv, V domains shown) VH: EVQLVESGAEVKKPGESLKISCKGSGYSFTSYWIGWVRQMPGKGLEWMGIIYPGDSDTRYSPSFQGQVTISADKSISTAYLQWSSLKASDTAMYYCARRGDLDAFDIWGQGTMVTVSS VL: QPGLTQPPAASGTPGQRVTVSCSGASANIGSNAVSWFKQFPETAPRLLISGNTHRPSGVPDRVSGSKSGTSASLTISGLQSDDEADYYCAAWDDSLNGYVFGSGTKVTVL"
reading_unit = "pM"
observed_measurement = 8.9

[[record]]
binder = "Ab 27 (scFv, V domains shown) VH: QVQLVQSGTEVKKPGASVKVSCKASGYSFTGSHLHWVRQAPGQGLEWMGWINPDSGVINYAQKFQGRVTLTRDTSISTAYMELSGLRSDDTAVYYCARDKAIGYVWALDYWGQGTLVTVSS VL: QSALTQPPSVSGSPGQSVTISCTGTSSDVGTYNRVSWYQQPPGKAPKLMIYEVSNRPSGVSNRFSGSKSGNTASLTISGLQAEDEADYYCSSYTRTFTYVFGTGTKVTVL"
reading_unit = "pM"
observed_measurement = 8.78

[[record]]
binder = "Ab_18 (scFv, V domains shown) VH: EVQLVQSGGGVVQPGRSLRVSCAASGFSFSRYGMHWVRQAPGKGLEWVAFIRHDGSKKYYADSVEGRFTISRDNSRNTVSLEMNSLRGEDTAVYYCAKDGRLEAALDDWGQGTLVTVSS VL: NFMLTQPHSMSGSAGKTVTVSCIRSSGSIANNFVQWYQQRPGSAPTTVIYEDNQRPSGVPDRFSGSIDSSSNSASLTISGLKTEDEADYYCQSYDSSNLVFGGGTRLTVL"
reading_unit = "pM"
observed_measurement = 9.07

